Data credit: PubChem BioAssay (NCATS)

target: Bile acid receptor (Homo sapiens) (UniProt Q96RI1); test: qHTS assay for small molecule antagonists of farnesoid X receptor signaling (AID 588526); settings: HEK293T FXR-UAS-bla, beta-lactamase ratio, antagonist mode; series mostly up to 76.7 µM; note: % is set by controls: 0 for no effect and ±100 for the full control effect
Sequence (Q96RI1 whole entry, looked up): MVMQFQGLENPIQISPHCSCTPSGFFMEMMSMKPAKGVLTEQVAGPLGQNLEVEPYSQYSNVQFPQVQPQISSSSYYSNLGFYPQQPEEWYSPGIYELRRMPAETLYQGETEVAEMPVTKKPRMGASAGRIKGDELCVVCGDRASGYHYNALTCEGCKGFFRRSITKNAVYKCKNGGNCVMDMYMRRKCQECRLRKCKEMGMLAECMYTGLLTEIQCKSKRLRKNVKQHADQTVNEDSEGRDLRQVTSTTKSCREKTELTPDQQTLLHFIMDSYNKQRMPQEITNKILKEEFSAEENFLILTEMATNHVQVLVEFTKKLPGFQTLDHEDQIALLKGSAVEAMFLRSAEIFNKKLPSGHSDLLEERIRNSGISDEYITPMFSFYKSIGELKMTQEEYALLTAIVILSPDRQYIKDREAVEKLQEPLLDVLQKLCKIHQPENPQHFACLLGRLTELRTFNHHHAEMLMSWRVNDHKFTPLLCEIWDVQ
Records with an inconclusive call do not appear. Active and inactive are the calls of the source. Calls come from the whole dose curve.
PROPERTY_LABEL: outcome

COMPOUND	OBSERVED_RESULT
Cc1cccc([N+](=O)[O-])c1	inactive
Oc1ccc(Cl)cc1Cl	inactive
CCC[CH2][Sn]([Cl])([Cl])[Cl]	inactive
C=CCOC(C)=O	inactive
CCS(=O)CCSP(=O)(OC)OC (configuration not stated)	inactive
ClC(Cl)(Cl)c1ccccc1	inactive
Cc1ccc([N+](=O)[O-])cc1C	inactive
O=C=NC1CCCCC1	inactive
CNC(=O)O/N=C/C(C)(C)SC	inactive
Nc1ccc(Br)cc1	inactive
CC(COc1ccc(Oc2ccccc2)cc1)Oc1ccccn1 (configuration not stated)	inactive
CC(C)(C)OOC(C)(C)C	inactive
CCc1cccc(CC)c1N(COC)C(=O)CCl	inactive
CCSC(=O)Cl	inactive
S=C=Nc1cccc2ccccc12	inactive
CCOc1ccc(N)cc1	inactive
Nc1ccccc1Cl	inactive

====

assay: qHTS Assay for Lipid Storage Modulators (AID 1519); conditions: Drosophila S3 cells, BODIPY lipid droplet/cell ratio, laser cytometry; at 25.7 µM (top of the series); cells loaded with oleic acid; note: % is set by controls: 0 for no effect and ±100 for the full control effect
Results filed as inconclusive are left out.

MOLECULE	activity change, negative = inhibition [%]
Oc1ccc2c3c1O[C@H]1[C@@H](O)CC[C@]4(O)[C@H](C2)N(CC2CCC2)CC[C@@]314	-2.99
COc1cc2c(cc1O)C[C@H]1c3c(cc(O)c(OC)c3-2)CCN1C	0.193
CN1Cc2c(ccc3c2OCO3)[C@@H]2[C@@H](O)Cc3cc4c(cc3[C@@H]21)OCO4	0.247
C[C@@]12CC[C@H]3[C@@H](CC[C@]4(O)C[C@H](O)CC[C@@]34C=O)[C@]1(O)CC[C@@H]2C1=CC(=O)OC1	-0.542
CS(=N)(=O)CC[C@@H](N)C(=O)O (some centres undefined)	0.596
COC1=C[C@H]2C3=C([C@H]2C1=O)[C@H](NC(C)=O)CCc1cc(OC)c(OC)c(OC)c13	0.263
COc1ccc2c(c1OC)C(=O)O[C@H]2[C@H]1c2cc3c(cc2CCN1C)OCO3	3
C=C1[C@@H]2C[C@@]3([C@H]1O)[C@H]1C[C@@H]4[C@@]5(C)CC[C@H](O)[C@]4([C@H]1N(CC)C5)[C@H]3C[C@H]2O	-1.27
CC1=NCCc2c1[nH]c1cc(O)ccc21	1.71

====

experiment: Cytotoxicity counterscreen for inhibitors of SARS-CoV-2 cell entry (AID 1645845); conditions: cell viability (SARS-CoV-2 entry assay cells); series mostly up to 57.1 µM; note: nearly all actives have a fitted effect of over 50% in size
Inconclusive results are not listed. Active and inactive are the calls of the source. Calls follow the shape of the full dose curve. Bridge positions count the residues as written; N and C are the ends. Square brackets hold non-standard residues; d marks the D form. Peptide text beside a SMILES is read from it. Orn = NCCC[CH](N)C(=O)O; Mpa = O=C(O)CCS
Outcome codes: 1 (yes) (active), 0 (no) (inactive)

MOLECULE	CLASS_ASSIGNMENT
COc1nc(N)nc2c1ncn2C1OC(CO)C(O)C1O (configuration not stated)	0 (no)
Cc1c(F)cc(C(=O)NC2CC2)cc1-c1c(F)cn2c(C(C)(C)C)nnc2c1F	0 (no)
O=C(O)c1cc2ccccc2c(Cc2c(O)c(C(=O)O)cc3ccccc23)c1O	0 (no)
COc1ccc(CNC(=O)c2cc(-c3cncc(Cl)c3)cnc2-c2ccccn2)nc1OC	0 (no)
Cc1c(Cl)c(C)[n+]([O-])c(Cl)c1-c1noc(-c2cc(O)c(O)c([N+](=O)[O-])c2)n1	0 (no)
CC1(C)[C@@H](O)CC[C@]2(C)[C@H]3C(=O)C=C4[C@@H]5C[C@@](C)(C(=O)O)CC[C@]5(C)CC[C@@]4(C)[C@]3(C)CC[C@@H]12	0 (no)
Cc1c(-c2ccc(-c3ccccc3F)cc2)nc2ccc(F)cc2c1C(=O)O	0 (no)
NS(=O)(=O)c1ccc(Cc2c(-c3cccc(-c4ccccc4)c3)nn(-c3nc(C(=O)O)cs3)c2CC2CC2)cc1	0 (no)
O=C(NNCS(=O)(=O)O)c1ccncc1	0 (no)
CC(C)C[C@H](NC(=O)[C@@H](COC(C)(C)C)NC(=O)[C@H](Cc1ccc(O)cc1)NC(=O)[C@H](CO)NC(=O)[C@H](Cc1c[nH]c2ccccc12)NC(=O)[C@H](Cc1cnc[nH]1)NC(=O)[C@@H]1CCC(=O)N1)C(=O)N[C@@H](CCCN=C(N)N)C(=O)N1CCC[C@H]1C(=O)NNC(N)=O	0 (no)
CCC=CCC=CCC=CCCCCCCCC(=O)O	0 (no)
C=CC(=O)Nc1cc(Nc2nccc(-c3cn(C)c4ccccc34)n2)c(OC)cc1N(C)CCN(C)C	1 (yes)
Cc1cc(C)cc(NC(=O)Cc2ccc(OC(C)(C)C(=O)O)cc2)c1	0 (no)
COc1cc(C)[nH]c(=O)c1CNC(=O)c1c(C)n([C@H](C)C2CCN(CC(F)(F)F)CC2)c2ccccc12	0 (no)
Cc1[nH]nc(C(F)(F)F)c1Cc1sc2c(c1C(=O)N1C[C@](C)(O)CO1)c(=O)n(C)c(=O)n2C(C)C	0 (no)
Cc1ccc(C2(O)CCN(CCCC(=O)c3ccc(F)cc3)CC2)cc1	0 (no)
NC(=O)[C@@H]1CC[C@@H]2CN1C(=O)N2OS(=O)(=O)O	0 (no)
CCOc1ccc(CC2NC(=O)CCSSCC(C(=O)N3CCCC3C(=O)NC(CCCN)C(=O)NCC(N)=O)NC(=O)C(CC(N)=O)NC(=O)C(C(C)O)NC(=O)C(C(C)CC)NC2=O)cc1 (configuration not stated) ([Mpa]Y(Et)ITNCP[Orn]G-NH2; disulfide 1-6; configuration not given here)	0 (no)
OC(c1ccc(-c2ccc(CN3CCN(Cc4ccncc4)CC3)cc2)c(F)c1)(C(F)(F)F)C(F)(F)F	0 (no)
CCOc1cc(C(CS(C)(=O)=O)N2C(=O)c3cccc(NC(C)=O)c3C2=O)ccc1OC (configuration not stated)	0 (no)
COc1cc(O)c(C(=O)Nc2nc(C(=O)NCCN(C(C)C)C(C)C)cs2)cc1OC	0 (no)
CN1CCN(CCCNc2ncc(Cl)c(-c3cc4c(C(=O)NC5CC5)cccc4s3)n2)CC1	0 (no)
C=CC(=O)N[C@H]1CCOC[C@H]1Nc1ncc2cc(-c3c(Cl)c(OC)cc(OC)c3Cl)ccc2n1	0 (no)
COc1ccc(C(=O)C2CCN(CC(=O)N(Cc3nc4c(c(=O)[nH]3)COCC4)CC3CC3)CC2)cc1	0 (no)
CC(=O)Nc1c(I)c(C(=O)N[C@H]2C(O)O[C@H](CO)[C@@H](O)[C@@H]2O)c(I)c(N(C)C(C)=O)c1I (some centres not stated)	0 (no)
COc1ccc(NC(=O)c2ccc(C(=N)N(C)C)cc2)c(C(=O)Nc2ccc(Cl)cn2)c1	0 (no)
CO[C@H]1/C=C/O[C@@]2(C)Oc3c(C)c(O)c4c(O)c(c(/C=N\N5CCN(C6CCCC6)CC5)c(O)c4c3C2=O)NC(=O)/C(C)=C\C=C\[C@H](C)[C@H](O)[C@@H](C)[C@@H](O)[C@@H](C)[C@H](OC(C)=O)[C@@H]1C	0 (no)
N=C(N)c1ccc(/C=C/c2ccc(C(=N)N)cc2O)cc1	0 (no)
CCCCCCCCCCCCCCCC(=O)OCC(=O)[C@@]1(O)[C@H](C)C[C@H]2[C@@H]3CCC4=CC(=O)C=C[C@]4(C)[C@@]3(F)[C@@H](O)C[C@@]21C	0 (no)
O=C(O)C[C@@H]1CC[C@H](NC(=O)Cc2cccs2)B(O)O1	0 (no)
Nc1nccc(-c2c(-c3ccc(F)cc3)ncn2C2CCCCC2)n1	0 (no)
CC(=O)OCC(=O)[C@@]1(O)[C@H](C)C[C@H]2[C@@H]3C[C@H](F)C4=CC(=O)C=C[C@]4(C)[C@H]3[C@@H](O)C[C@@]21C	0 (no)

====

assay: Cytotoxicity counterscreen for inhibitors of SARS-CoV-2 cell entry (AID 1645845); details: cell viability (SARS-CoV-2 entry assay cells); series mostly up to 57.1 µM; note: nearly all actives have a fitted effect of over 50% in size; note: potency is the fitted concentration of half-maximal effect
Records with an inconclusive call do not appear. Activity calls are given as the source filed them. The call rests on the fitted dose curve.
PROPERTY_LABEL: Potency

COMPOUND	OBSERVED_RESULT
O=S(=O)(O)c1ccc2c(N=Nc3ccc(S(=O)(=O)O)c4ccccc34)c(O)c(S(=O)(=O)O)cc2c1	inactive
CCc1nc(C(N)=O)c(Nc2ccc(N3CCC(N4CCN(C)CC4)CC3)c(OC)c2)nc1NC1CCOCC1	inactive
COc1ccc(-n2cnc3cc(C(=O)N4CCCCC4)ccc32)cc1	inactive
O=C(O)CSc1nnc(Br)n1-c1ccc(C2CC2)c2ccccc12	inactive
O=C(NC[C@H](O)CN1CCc2ccccc2C1)c1cc(NC2COC2)ncn1	inactive
Cn1cc(/C=C/C(=O)c2cccc(F)c2)cc1/C=C/C(=O)NO	inactive
COC1CCC(N2C(=O)CNc3ncc(-c4ccc(C(C)(C)O)nc4)nc32)CC1 (centres undefined)	7.94 µM (active)
Nc1nc(CC(=O)Nc2ccc(CCNC[C@H](O)c3ccccc3)cc2)cs1	inactive
O=c1c(-c2ccc(O)cc2)coc2c([C@@H]3O[C@H](CO)[C@@H](O)[C@H](O)[C@H]3O)c(O)ccc12	inactive
